Reported Emax,diss values for the following compounds.
# Tested on: Muscarinic acetylcholine receptor M2 (Cavia porcellus)
# Method: Emax dissociation towards Muscarinic acetylcholine receptor M2 in guinea pig using [3H]NMS as a radioligand

Smi: C[N+](C)(CCCCCC[N+](C)(C)CCCN1C(=O)c2ccccc2C1=O)CCCN1C(=O)CCC1=O
Emax,diss (%): 100
//
Smi: CC[N+](C)(C)CCCN1C(=O)c2ccccc2C1=O
Emax,diss (%): 100
//
Smi: CCCCCC[N+](C)(C)CCCN1C(=O)c2ccccc2C1=O
Emax,diss (%): 100
//
Smi: CCC[N+](C)(C)CCCN1C(=O)c2ccccc2C1=O
Emax,diss (%): 90
//
Smi: C[N+](C)(C)CCCN1C(=O)c2ccccc2C1=O
Emax,diss (%): 100

----------
Reported pEC0.5,diss values for the following compounds.
# Test system: Muscarinic acetylcholine receptor M2 (Cavia porcellus)
# Method: Half-maximal reduction towards Muscarinic acetylcholine receptor M2 in guinea pig using [3H]NMS as a radioligand

Smi: CC[N+](C)(C)CCCN1C(=O)c2ccccc2C1=O
pEC0.5,diss: 3.35

Smi: CCC[N+](C)(C)CCCN1C(=O)c2ccccc2C1=O
pEC0.5,diss: 3.76

Smi: C[N+](C)(C)CCCN1C(=O)c2ccccc2C1=O
pEC0.5,diss: 3.21

Smi: CCCCCC[N+](C)(C)CCCN1C(=O)c2ccccc2C1=O
pEC0.5,diss: 4.06

Smi: C[N+](C)(CCCCCC[N+](C)(C)CCCN1C(=O)c2ccccc2C1=O)CCCN1C(=O)CCC1=O
pEC0.5,diss: 4.82

----------
# System: Muscarinic acetylcholine receptor M2 (Cavia porcellus)
# Method: Binding affinity towards Muscarinic acetylcholine receptor M2 in guinea pig using [3H]-AF-DX 384 as a radioligand
Readout kind: pKA

Smi: CCC[N+](C)(C)CCCN1C(=O)c2ccccc2C1=O
Readout kind: pKA
Reported result: 4.1
//
Smi: C[N+](C)(CCCCCC[N+](C)(C)CCCN1C(=O)c2ccccc2C1=O)CCCN1C(=O)CCC1=O
Readout kind: pKA
Reported result: 5.93
//
Smi: CC[N+](C)(C)CCCN1C(=O)c2ccccc2C1=O
Readout kind: pKA
Reported result: 4.44
//
Smi: CCCCCC[N+](C)(C)CCCN1C(=O)c2ccccc2C1=O
Readout kind: pKA
Reported result: 5.8
//
Smi: C[N+](C)(C)CCCN1C(=O)c2ccccc2C1=O
Readout kind: pKA
Reported result: 4.51

----------
Parameter: Palpha. Scope: all listed entries.
# System tested: Muscarinic acetylcholine receptor M2 (Sus scrofa) (UniProt P06199)
# Sequence (whole entry): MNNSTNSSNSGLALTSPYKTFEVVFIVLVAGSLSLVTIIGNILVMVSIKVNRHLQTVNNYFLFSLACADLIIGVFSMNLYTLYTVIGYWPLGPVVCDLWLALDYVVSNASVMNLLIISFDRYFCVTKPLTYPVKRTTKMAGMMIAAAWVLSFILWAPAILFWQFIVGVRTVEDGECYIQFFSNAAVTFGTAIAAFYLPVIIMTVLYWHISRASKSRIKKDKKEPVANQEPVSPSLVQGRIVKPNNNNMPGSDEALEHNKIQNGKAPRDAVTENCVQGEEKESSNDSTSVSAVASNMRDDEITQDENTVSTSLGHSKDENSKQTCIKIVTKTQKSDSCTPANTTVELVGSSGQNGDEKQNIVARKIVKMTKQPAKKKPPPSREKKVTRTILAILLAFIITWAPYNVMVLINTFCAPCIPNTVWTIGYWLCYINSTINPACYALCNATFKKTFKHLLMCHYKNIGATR
# Method: Palpha towards Muscarinic acetylcholine receptor M2 in porcine heart using [3H]NMS as a radioligand
Readout kind: Palpha

Compound: CCCN(CCC)CC1CCCCN1CCNC(=O)N1c2ccccc2C(=O)Nc2cccnc21 (stereo not given)
System tested: Muscarinic acetylcholine receptor M2 (Sus scrofa) (UniProt P06199)
Readout kind: Palpha
Reported result: < -2

Compound: CCCN(CCCCCCN1C(=O)c2ccccc2C1=O)CC1CCCCN1CCNC(=O)N1c2ccccc2C(=O)Nc2cccnc21 (stereo not given)
System tested: Muscarinic acetylcholine receptor M2 (Sus scrofa) (UniProt P06199)
Readout kind: Palpha
Reported result: 0.05

Compound: CCCN(CCCN1C(=O)c2ccccc2C1=O)CC1CCCCN1CCNC(=O)N1c2ccccc2C(=O)Nc2cccnc21 (stereo not given)
System tested: Muscarinic acetylcholine receptor M2 (Sus scrofa) (UniProt P06199)
Readout kind: Palpha
Reported result: 1.07

Compound: CCCN(CCCCCC[N+](C)(C)CCCN1C(=O)c2ccccc2C1=O)CC1CCCCN1CCNC(=O)N1c2ccccc2C(=O)Nc2cccnc21 (stereo not given)
System tested: Muscarinic acetylcholine receptor M2 (Sus scrofa) (UniProt P06199)
Readout kind: Palpha
Reported result: -0.58

Compound: CCCN(CCCN1C(=O)CCC1=O)CC1CCCCN1CCNC(=O)N1c2ccccc2C(=O)Nc2cccnc21 (stereo not given)
System tested: Muscarinic acetylcholine receptor M2 (Sus scrofa) (UniProt P06199)
Readout kind: Palpha
Reported result: -1.8
